- Tested on: TK-10 renal
- Measurement protocol: NCI-60 one-dose screen, 48 h (100 = growth as untreated, 0 = no growth, -100 = all killed)
- Conditions used: 10 µM unless noted
About 83,000 compounds went through this panel and 20% of them were active in at least one assay; those are over-represented in the sample as a whole.
Quantity name: growth (%)
Numeric only. Scale: %

Guide cases for growth, answers given:
NC(=O)C1(N2CCCCC2)CCN(CCCC(=O)c2ccc(F)cc2)CC1	88.2
CCOC(=O)N1CCN(CCCCl)CC1	92.1
Cc1ccc(C2CC(c3cccc(Nc4ccncc4)c3)=NN2c2ccc(Cl)cc2)cc1 (centres undefined)	-80.9
Nc1nnc2cc(Cl)ccc2n1	136

Which growth is reported for this compound? Cc1ccc(-c2c(Br)c(OC(=O)CO[C@@H]3C[C@H](C)CC[C@H]3C(C)C)c(-c3ccc(C)cc3C)c(Br)c2OC(=O)CO[C@H]2C[C@@H](C)CC[C@@H]2C(C)C)c(C)c1
92.8

I'd like to know its growth. The compound in question is COc1cc(C2NC(c3cc(OC)c(OC)c(OC)c3)C(C#N)(C#N)C2(C#N)C#N)cc(OC)c1OC (centres undefined)
103

Entry O=C(CCN1CCCC1)Nc1ccc2c(NCc3ccc(F)cc3)c3ccccc3nc2c1 has what growth?
-3.79

For CCCCCCCCCCN=C(N)N=C(N)N , what is its reported growth?
40.8

Given COc1ccc(/C=C/C(=O)c2ccc(Nc3ncnc4ccccc34)cc2)cc1OC , state its recorded growth.
98.8

Reported growth, compound COc1cc2nc(-c3ccc(C(F)(F)F)cc3)cc(OCCN3CCCC3)c2cc1OC : ____
92.9

Which growth value is on record for O=C1Nc2ccccc2/C1=N/c1nc(-c2ccc(Cl)cc2)cs1 ?
87.9

Request the reported growth associated with COc1ccc(Nc2nc(N)nc3c2CCc2occc2-3)cc1
121

What does the data say about its growth? Entry: COc1ccc(C2=C(c3ccccc3)c3ccc(OC(C)=O)cc3OC2(C)C)cc1
116

----------
- Test system: DU-145 prostate
- Measurement protocol: NCI-60 one-dose screen, 48 h
- Conditions used: 10 µM unless noted
This is part of a sample that, as a whole, favours compounds with a hit. Of some 83,000 tested, about 20% had one in any assay. Calls of active or inactive are those of the source. Rule for the calls: active = growth percent below 10; inactive = the rest.
Response enum: active, inactive

State the result this test recorded for CN(Cc1ccccc1)c1nc(Cl)c(C2CC(c3ccc(Cl)cc3)=Cc3[nH][nH]c(=O)c32)s1 (stereo not given) .
inactive

----------
- Tested on: UACC-62 melanoma
- Measurement protocol: NCI-60 one-dose screen, 48 h (100 = growth as untreated, 0 = no growth, -100 = all killed)
- Conditions used: 10 µM unless noted
About 83,000 compounds went through this panel and 20% of them were active in at least one assay; those are over-represented in the sample as a whole.
Respond with condition met for growth values of 70% and above, condition not met for values below.

Cc1nc2sc(C(=O)Nc3ccccc3)c(N)c2cc1C(=O)c1ccc(C(F)(F)F)cc1	condition met

// inclusive: growth at least 70%? input: COc1ccc(-c2nc(SCCC(C)C)nc(N/N=C(/C)c3ccc(C)cc3)c2C#N)cc1
condition met

Say whether COc1ccc2c(c1)c(CC(=O)NCCOCCOCC(=O)Nc1ccc(OC)c(C(N)=O)c1O)c(C)n2C(=O)c1ccc(Cl)cc1 shows growth of 70% or more.
condition met

Determine whether this compound has growth no lower than 70%: CC(C)(C)CC(C)(C)Nc1c(-c2ccc3c(c2)OCO3)nc2cnccn12
condition not met

Can C[C@]12CCc3nc(Nc4cccc(O)c4)sc3C1=CC[C@@H]1[C@@H]2CC[C@]2(C)/C(=N\NC(N)=S)CC[C@@H]12 be said to have growth at or above 70%?
condition met

Tell me whether growth is at least 70% here: O=C(Nc1nc2ccc(S(=O)(=O)Nc3ccc(C4(C(F)(F)F)CC4)cc3)cc2[nH]1)c1cnccn1
condition not met

Entry Cc1cc2cc3cc(C)c(N)cc3[n+](C)c2cc1N : is its growth no less than 70%?
condition not met

Decide: growth of CCOC(=O)c1cnc2c(cnn2CC)c1NN=C(C)C >= 70%?
condition met

Check the entry Nc1c(C(=O)Nc2cccc3ccncc23)sc2nc3c(cc12)C(=O)CCC3 : does growth equal or exceed 70%?
condition not met

Textbook exercise: given the entry COc1cc(/C=C/C(=O)c2c(C)oc3nc[nH]c(=O)c23)ccc1O , state whether its growth is greater than or equal to 70%.
condition met
